test-summary: solvent given as SMILES
condition-label: in Cc1ccccc1
For each record, write down the corresponding absorption maximum.
One number for each entry, in nm.

These recorded examples may help you get a feel for the data.
- c1ccc(-c2nc(-c3ccccc3)nc(-c3ccc(-n4c5ccccc5c5cc(-n6c7ccccc7c7ccccc76)ccc54)c4c5ccccc5n(-c5ccccc5)c34)n2)cc1: 378.07
- CCC1=C(C)C2=C(c3cc(C4=C5C(C)=C(CC)C(C)=[N+]5[B-](F)(F)n5c(C)c(CC)c(C)c54)cc(C4=C5C(C)=C(CC)C(C)=[N+]5[B-](F)(F)n5c(C)c(CC)c(C)c54)c3)c3c(C)c(CC)c(C)n3[B-](F)(F)[N+]2=C1C: 537

For every item below, please supply its absorption maximum.
1. Cc1ccc2c(c1)c1cc(Br)ccc1n2-c1c(C#N)c(-n2c3ccc(Br)cc3c3cc(Br)ccc32)c(-n2c3ccc(Br)cc3c3cc(Br)ccc32)c(C#N)c1-n1c2ccc(Br)cc2c2cc(Br)ccc21
2. CCN(CC)/C(C)=N\c1ccc2c3c(cccc13)C(=O)c1ccccc1-2
3. CCCCCCCCC1(CCCCCCCC)c2ccccc2-c2ccc(-c3nnc(-c4cccc(-n5c6ccc(C(C)(C)C)cc6c6cc(C(C)(C)C)ccc65)c4)o3)cc21
4. Cc1nn(-c2ccccc2)c2c1c(=O)oc1ccc(-n3c4ccccc4c4cc(-n5c6ccccc6c6ccccc65)ccc43)cc12

[339, 461, 345, 342]

For every item below, please supply its absorption maximum.
1. O=C(c1ccc(C(=O)c2ccc(N3c4ccccc4Oc4ccccc43)cc2)cc1)c1ccc(N2c3ccccc3Oc3ccccc32)cc1
2. CCn1c2ccccc2c2cc(-c3cc(-c4ccc5c(c4)c4ccccc4n5CC)nc(-c4ccc(OC)cc4)n3)ccc21
3. Cc1ccc(-n2c(-c3cccc4cc[nH]c34)nc3c4ccccc4c4ccccc4c32)cc1
4. N#Cc1c(-n2c3ccccc3c3cc(Br)ccc32)c(-n2c3ccccc3c3cc(Br)ccc32)c(C#N)c(-n2c3ccccc3c3cc(Br)ccc32)c1-n1c2ccccc2c2cc(Br)ccc21
5. [C-]#[N+]c1ccc(-c2ccc(N)cc2)cc1
6. COc1ccc(C2=C3C(C)=CC(C)=[N+]3[B-](F)(F)n3c(C)cc(C)c32)cc1
7. c1ccc(-c2nc(-c3ccccc3)nc(-c3ccc(-n4c5ccccc5c5c4c4ccccc4n5-c4ccccc4)cc3)n2)cc1
8. CCCCN1C(=S)c2cccc3c(N(C)C)ccc(c23)C1=S

[425, 363, 354, 337, 310, 504, 398, 536]

Entry `COc1ccc(N(c2ccc(C=C(c3ccccc3)c3ccccc3)cc2)c2ccc(C=C(c3ccccc3)c3ccccc3)cc2)cc1` needs its absorption maximum filled in; supply it.
397

====

test-summary: solvent given as SMILES
condition-label: in Cc1ccccc1
Record class 1 whenever absorption maximum is at 400 nm or higher; record class 0 when lower.

• CCCCCCCCOC(=O)c1cc2ccc3ccccc3c2c(C#N)c1N = class 1

Can `O=C(c1ccc(-n2c3ccccc3c3ccccc32)cc1)c1ccc(-n2c3ccccc3c3ccccc32)cc1` be said to have absorption maximum at or above 400 nm?
class 0

====

test-summary: solvent given as SMILES
condition-label: in C1CCCCC1
Record met whenever absorption maximum is at 400 nm or higher; record not met when lower.

These solved cases illustrate the format of a correct answer.
• c1ccc2cc(-n3cnc4ccccc43)ccc2c1 = not met
• c1csc(-c2cnc(-c3cccs3)c3nonc23)c1 = met
• CC(C)(C)c1ccc(C2=CC3=C(c4ccccc4)c4cc(-c5ccc(C(C)(C)C)cc5)c(-c5ccc(C(C)(C)C)cc5)n4[B-](F)(F)[N+]3=C2c2ccc(C(C)(C)C)cc2)cc1 = met
• CC1(C)CC(NCc2ccc3ccc4cccc5ccc2c3c45)CC(C)(C)N1 = not met
• COC(=O)c1ccc(C#Cc2ccc(N(C)C)cc2)cc1 = not met
• O=C1OC(c2ccccc2)=N/C1=C\c1ccc(N(c2ccc(/C=C3\N=C(c4ccccc4)OC3=O)cc2)c2ccc(/C=C3/N=C(c4ccccc4)OC3=O)cc2)cc1 = met
• c1ccc2c(-n3cnc4ccccc43)cccc2c1 = not met
• Cc1cc2ccc(-c3cccc4cccc(-c5ccc6cc(C)c(=O)oc6c5)c34)cc2oc1=O = not met
• [C-]#[N+]c1ccc(-c2ccc(N)cc2)cc1 = not met
• CCCC1(CCC)c2cc(-c3ccco3)ccc2-c2ccc(-c3ccco3)cc21 = not met

Can `C[Si](C)(C)[Si](C)(C)c1ccc2cc3ccccc3cc2c1` be said to have absorption maximum at or above 400 nm?
not met

Can `CCC1=C(C)C2=C(c3c(C)cc(C)nc3-c3cccs3)c3c(C)c(CC)c(C)n3[B-](F)(F)[N+]2=C1C` be said to have absorption maximum at or above 400 nm?
met

Can `c1ccc(-c2nc(-c3cccc4ccccc34)n3ccccc23)cc1` be said to have absorption maximum at or above 400 nm?
not met

Can `O=[N+]([O-])c1ccc(NCCNCc2c3ccccc3cc3ccccc23)c([N+](=O)[O-])c1` be said to have absorption maximum at or above 400 nm?
not met

Can `Nc1ccccc1C(=O)O` be said to have absorption maximum at or above 400 nm?
not met

Can `COc1cccc(C2=c3c(c4ccc(C(C)(C)C)cc4c4cc(C(C)(C)C)ccc34)=[N+]3C2=C(c2ccccc2)c2c(-c4cccc(OC)c4)c4c5ccc(C(C)(C)C)cc5c5cc(C(C)(C)C)ccc5c4n2[B-]3(F)F)c1` be said to have absorption maximum at or above 400 nm?
met

Can `CNc1ccc2c(c1)C(=O)c1ccccc1-2` be said to have absorption maximum at or above 400 nm?
met

====

test-summary: solvent given as SMILES
condition-label: in CCO
Record rule met whenever absorption maximum is at 500 nm or higher; record rule not met when lower.

These solved cases illustrate the format of a correct answer.
- COc1ccc2c(CC(=O)NN)coc2c1: rule not met
- CC(C)(C)c1cc2ccc3cc(C(C)(C)C)cc4c3c2c(c1)c(=O)n1c4nc2c3cc(C(C)(C)C)cc4ccc5cc(C(C)(C)C)cc(c5c43)c21: rule not met
- COc1cc2c(cc1F)c(=O)c1cc(F)c(OC)cc1n2-c1ccccc1: rule not met
- O=C([O-])c1ccccc1-c1c2cc(Br)c(=O)c(Br)c-2oc2c(Br)c([O-])c(Br)cc12: rule met
- Cc1cc(=O)oc2cc3cc(-c4cn(Cc5ccccc5)nn4)ccc3cc12: rule not met

Can `CC(C)(C)OC(=O)NCCCC(=O)OCc1ccc2c3cccc4cccc(c5cccc1c52)c43` be said to have absorption maximum at or above 500 nm?
rule not met

Can `CN1C(=O)/C(=C/c2ccncc2)N=C1/C=C/c1ccccc1` be said to have absorption maximum at or above 500 nm?
rule not met

Can `CN(C)c1cccc2c1C(=O)c1ccccc1-2` be said to have absorption maximum at or above 500 nm?
rule not met

Can `CCN(CC)c1ccc2cc(/C=C(\C#N)c3nc4ccccc4o3)c(=O)oc2c1` be said to have absorption maximum at or above 500 nm?
rule met

Can `COCCOCCOCCOc1cc(C=O)c(OCCOCCOCCOC)cc1C=O` be said to have absorption maximum at or above 500 nm?
rule not met

Can `CC1(C)c2ccccc2N(c2ccc(-c3n[n+]4c(o3)-c3ccccc3O[B-]4(F)F)cc2)c2ccccc21` be said to have absorption maximum at or above 500 nm?
rule not met

Can `Cc1ccc([C@@H]2C[C@](O)(c3ccccn3)C[C@](O)(c3ccccn3)[C@H]2C(=O)c2ccc(N(c3ccccc3)c3ccccc3)cc2)cc1` be said to have absorption maximum at or above 500 nm?
rule not met

====

test-summary: solvent given as SMILES
condition-label: in c1ccccc1
For each record, write down the corresponding absorption maximum.
Numbers only, in nm.

These recorded examples may help you get a feel for the data.
• Cc1ccc([C@@H]2C[C@](O)(c3ccccn3)C[C@](O)(c3ccccn3)[C@H]2C(=O)c2ccc(N(c3ccccc3)c3ccccc3)cc2)cc1 = 370
• CNc1ccc2c(c1)-c1ccccc1C2=O = 409
• CCC(=O)c1ccc2cc(N(C)C)ccc2c1 = 355
• O=c1oc2ccccc2nc1-c1ccc(Cl)cc1 = 344
• CCC1=C(C)C(=O)n2c1cc1c(C)c(CC)c(C)n1c2=O = 428
• CN(C)c1ccc2c(c1)C(=O)c1ccccc1-2 = 507

For every item below, please supply its absorption maximum.
1. O=C1OC(=O)c2ccc(N(c3ccccc3)c3c4ccccc4cc4ccccc34)c3cccc1c23
2. Nc1cccc2c1C(=O)c1ccccc1-2
3. CN(C)c1ccc(C#Cc2ccc(C#Cc3ccc(C#Cc4ccccc4C#N)cc3C#N)cc2C#N)cc1

450
416
426

For every item below, please supply its absorption maximum.
1. CCOC(=O)/C=C/c1ccc(N(C)C)cc1
2. CCN(CC)/C(C)=N\c1ccc2c3c(cccc13)C(=O)c1ccccc1-2

1. 363
2. 462
